# galectin-9N (Homo sapiens, UniProt O00182): Kd values follow
# Sequence (O00182 17-148 limits assumed): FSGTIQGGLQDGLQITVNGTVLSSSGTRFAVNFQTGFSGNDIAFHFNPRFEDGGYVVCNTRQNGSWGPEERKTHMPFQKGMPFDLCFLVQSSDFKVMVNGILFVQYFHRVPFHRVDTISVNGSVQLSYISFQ
Write the value in µM as a bare number.

Before answering, review these 3 worked examples.
{"compound": "OC1OC[C@H](O)[C@H](O)[C@H]1O (mixture of isomers) [L-Arabinose, L-arabinose, reference compound]", "Kd (µM)": 94000}
{"compound": "OC[C@H]1O[C@@H](OC[C@H]2OC(O)[C@H](O)[C@@H](O[C@@H]3O[C@H](CO)[C@H](O)[C@H](O)[C@H]3O)[C@H]2O)[C@H](O)[C@@H](O)[C@H]1O (stereo partly drawn)", "Kd (µM)": 100}
{"compound": "OC[C@H]1O[C@@H](O[C@H]2[C@@H](O)[C@@H](CO)OC(O)[C@@H]2O)[C@H](O)[C@@H](O)[C@H]1O (stereo partly drawn)", "Kd (µM)": 150}

Q. Query Kd on galectin-9N (Homo sapiens, UniProt O00182) for OC[C@H]1O[C@@H](O[C@@H]2[C@H](O)[C@@H](O)C(O)O[C@@H]2CO)[C@H](O)[C@@H](O)[C@H]1O (stereo partly drawn)
A. 1200
